Data origin: ChEMBL document CHEMBL5724696

- System: U2OS
- METHOD_DESCRIPTION: Here: values are normalized to the negative (DMSO; defined as 0% autophagy induction) and positive (250nM Torin1; mTOR inhibitor; defined as maximal inducer of autophagy = 100%) control compounds and represented as % of autophagy induction. […] The impact of autophagy induction on cells is complex and depends on the affected target. As such, the magnitude of a phenotype may not be equally mirrored in the %-value of autophagy induction and vice versa. The dynamics of the induction may indicate the mode of activation: e.g. activation via phosphorylation or a signaling cascade may occur fast, while activation via transcription factors may take considerably longer. […] Of note, treatment concentrations may be sub-optimal for specific compounds, leading to false negative annotations.
- Assay type: functional, Homo sapiens
- PROTOCOL_CONDITIONS: Compound Concentration 0.5 uM, Timepoint 60 hours, Culturing Media DMEM, 1 % Penicillin/Streptomycin, 10% Fetal bovin serum Add-On: No, Screening Media Control DMEM, Screening Media Samples DMEM
Catalogue of autophagy induction values
Give just the numeric value; % need not be written.

Example cases with answers are listed next.
>  <LINE_NOTATION>
N#Cc1cccc(C(=O)Nc2cc(-c3ccccc3)nn2-c2ccccc2)c1

>  <autophagy induction / %>
8.756

$$$$
>  <LINE_NOTATION>
Cc1cc(NC(=O)Nc2ccc(N(C)C)cc2)c2cc(F)cc(F)c2n1

>  <autophagy induction / %>
-2.138

$$$$

Please look at the following compound next.
QUERY: Need autophagy induction, item `CCc1ccc(OCc2ccccc2C(=O)Nc2ccc3nc(C)cc(N)c3c2)cc1.Cl`
RESULT: 10.1945
